Origin of the recorded values: PubChem BioAssay (NCATS)

- target system: Beta-2 adrenergic receptor (Homo sapiens) (UniProt P07550)
- Sequence (P07550 whole entry, looked up): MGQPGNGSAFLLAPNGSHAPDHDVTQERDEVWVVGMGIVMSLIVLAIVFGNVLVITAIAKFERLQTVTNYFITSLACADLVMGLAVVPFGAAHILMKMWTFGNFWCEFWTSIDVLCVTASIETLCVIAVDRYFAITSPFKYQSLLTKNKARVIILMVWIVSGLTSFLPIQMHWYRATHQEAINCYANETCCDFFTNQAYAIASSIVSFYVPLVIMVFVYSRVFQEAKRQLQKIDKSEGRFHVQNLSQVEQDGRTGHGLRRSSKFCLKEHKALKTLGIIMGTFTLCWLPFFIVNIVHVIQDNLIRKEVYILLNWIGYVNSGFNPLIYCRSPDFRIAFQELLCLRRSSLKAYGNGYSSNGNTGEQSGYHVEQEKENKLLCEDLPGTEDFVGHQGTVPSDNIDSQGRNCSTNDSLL
- assay summary: qHTS validation assay of beta-arrestin-biased ligands of beta2-adrenergic receptor (AID 485366)
- condition description: cell-based beta-arrestin recruitment to ADRB2, qHTS; series mostly up to 46.1 µM
Activity calls are given as the source filed them. Calls follow the shape of the dose curve; as a rule, active = well fitted curve in the direction sought with a large enough effect; inconclusive = small, poorly fitted or top-dose-only effect, or effect the other way, or another doubt; inactive = no such curve, though single readings can be large or run the other way.
quantity kind: outcome

The cases that follow already have their outcome on record.
C1CCC(N=C(NC23CC4CC(CC(C4)C2)C3)N2CCOCC2)CC1; inactive
CN1C2CCCC1CC(NC(=O)c1nn(C)c3ccccc13)C2 (stereo not given); inactive
O=C1c2ccccc2C(=O)c2c(NCCc3ccc(O)cc3)ccc(NCCc3ccc(O)cc3)c21; inactive
CCc1ccc(/C=C2/SC(=S)NC2=O)cc1; inactive
O=Nc1c(-c2c(O)[nH]c3ccccc23)[nH]c2ccccc12; inactive

## Task outcome lookup needed for `N#C/C(=C\c1ccc(O)c(O)c1)C(=O)Nc1ccccc1` , thanks.
## Result inactive

## Task outcome lookup needed for `Cc1cccc(/C=C/c2ccccc2)n1` , thanks.
## Result inactive

## Task outcome lookup needed for `C[C@H](Cc1ccccc1)Nc1ncnc2c1ncn2[C@@H]1O[C@H](CO)[C@@H](O)[C@H]1O` , thanks.
## Result inactive

## Task outcome lookup needed for `S=C(Nc1ccccc1)Nc1nccs1` , thanks.
## Result inactive

## Task outcome lookup needed for `CC[N+](CC)(CC)CC` , thanks.
## Result inactive
